# targetOfAssay: Retinoic acid receptor RXR-alpha (Homo sapiens, UniProt P19793)
# assaySummary: Inhibition of 9-cis-retinoic acid-induced RXRalpha transactivation
readoutKind: IC50 (nM)
State just the number; it will be interpreted in nM.

Measured IC50 (Retinoic acid receptor RXR-alpha (Homo sapiens, UniProt P19793)), entry CN1c2ccc(N3CCOCC3)cc2N=C(c2ccc(C(=O)O)cc2)c2cc3c(cc21)C(C)(C)CCC3(C)C : 3900

###

# targetOfAssay: Retinoic acid receptor RXR-alpha (Homo sapiens, UniProt P19793)
# assaySummary: Inhibition of 9-cis-retinoic acid-induced RXRalpha transactivation
readoutKind: log10 IC50 (log10 of the value in µM)
Answers are given as log10 of IC50 in µM.

| structureString | targetOfAssay | reportedMeasurement |
| --- | --- | --- |
| CN1c2ccc(S(=O)(=O)c3ccc(OC(F)(F)F)cc3)cc2N=C(c2ccc(C(=O)O)cc2)c2cc3c(cc21)C(C)(C)CCC3(C)C | Retinoic acid receptor RXR-alpha (Homo sapiens, UniProt P19793) | -0.89 |

Form: item CN1c2ccc(SCc3ccc(Cl)cc3)cc2N=C(c2ccc(C(=O)O)cc2)c2cc3c(cc21)C(C)(C)CCC3(C)C ; test system Retinoic acid receptor RXR-alpha (Homo sapiens, UniProt P19793); log10 IC50: -0.17

Summary: CCN1c2ccc(C(C)=O)cc2N=C(c2ccc(C(=O)O)cc2)c2cc3c(cc21)C(C)(C)CCC3(C)C , Retinoic acid receptor RXR-alpha (Homo sapiens, UniProt P19793), log10 IC50 = -0.10

Query CN1CCN(S(=O)(=O)c2ccc3c(c2)N=C(c2ccc(C(=O)O)cc2)c2cc4c(cc2N3C)C(C)(C)CCC4(C)C)CC1 on Retinoic acid receptor RXR-alpha (Homo sapiens, UniProt P19793); log10 IC50 returned: 0.00

Measured log10 IC50 (Retinoic acid receptor RXR-alpha (Homo sapiens, UniProt P19793)), entry CN1c2ccc(S(=O)(=O)N3CCOCC3)cc2N=C(c2ccc(C(=O)O)cc2)c2cc3c(cc21)C(C)(C)CCC3(C)C : -0.35

Response field log10 IC50 (Retinoic acid receptor RXR-alpha (Homo sapiens, UniProt P19793)) for item CC(=O)c1ccc2c(c1)N=C(c1ccc(C(=O)O)c(F)c1)c1cc3c(cc1N2C)C(C)(C)CCC3(C)C : 0.04

###

# targetOfAssay: Retinoic acid receptor RXR-alpha (Homo sapiens)
# Sequence (P19793 whole entry): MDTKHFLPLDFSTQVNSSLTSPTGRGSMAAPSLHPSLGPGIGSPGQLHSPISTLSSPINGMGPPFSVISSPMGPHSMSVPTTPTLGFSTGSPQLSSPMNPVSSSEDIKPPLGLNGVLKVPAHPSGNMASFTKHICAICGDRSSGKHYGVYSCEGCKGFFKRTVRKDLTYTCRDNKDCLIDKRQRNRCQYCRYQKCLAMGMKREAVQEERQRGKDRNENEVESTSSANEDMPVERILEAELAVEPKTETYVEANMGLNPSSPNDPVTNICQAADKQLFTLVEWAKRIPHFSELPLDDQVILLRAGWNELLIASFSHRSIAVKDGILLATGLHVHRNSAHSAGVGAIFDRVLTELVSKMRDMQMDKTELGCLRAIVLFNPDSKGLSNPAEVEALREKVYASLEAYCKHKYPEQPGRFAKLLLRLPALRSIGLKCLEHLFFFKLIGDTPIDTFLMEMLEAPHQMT
# assaySummary: Inhibition of LG-100268-induced RXRalpha transactivation
Entries annotated with measured IC50
The reply should read as a number followed by its unit.

Study these solved cases before continuing.
| structureString | IC50 |
| --- | --- |
| CN1c2ccc(S(=O)(=O)N3CCCC3)cc2N=C(c2ccc(C(=O)O)cc2)c2cc3c(cc21)C(C)(C)CCC3(C)C | 1 µM |
| CN1c2ccc(Sc3ccc(OC(F)(F)F)cc3)cc2N=C(c2ccc(C(=O)O)cc2)c2cc3c(cc21)C(C)(C)CCC3(C)C | 1 µM |

Short answer for CN1c2ccc(S(=O)(=O)N3CCOCC3)cc2N=C(c2ccc(C(=O)O)cc2)c2cc3c(cc21)C(C)(C)CCC3(C)C : IC50 was 1 µM
